Measured Rate of encapsulation by item
experimental-protocol: Rate of encapsulation of Luc DNA in lipid nanoparticles
Type: physicochemical
Set-up: unit: %
condition-details: Luc DNA-encapsulated lipid nanoparticles; cationic lipid:DPPC:cholesterol:GM-020=60:10.6:28:1.4 molar ratio
From the text: The concentration and rate of encapsulation of the nucleic acid (e.g., siRNA or mRNA) in the composition of the present invention can be measured by a known approach. For example, the nucleic acid is fluorescently labeled using Quant-iT™ RiboGreen® (Invitrogen Corp.), and the fluorescence intensity can be measured to determine the concentration and the rate of encapsulation. […]
metric-name: Rate of encapsulation

{"compound": "CCCCCC(CCCCC)COC(=O)CCC(=O)OCC(COC(=O)CCCN(C)C)(COC(=O)CCC(=O)OCC(CCCCC)CCCCC)COC(=O)CCC(=O)OCC(CCCCC)CCCCC [Example 37]", "experimental-result": 97.0}
{"compound": "CCCCCC(CCCCC)CC(=O)OCC(COC(=O)CCCCCCCC(=O)OC)(COC(=O)CCCN(C)C)COC(=O)CC(CCCCC)CCCCC [Example 36]", "experimental-result": 95.1}
{"compound": "CCCCCCCCCOC(=O)CCCCC(=O)OCC(COC(=O)CCCCC(=O)OCCCCCCCCC)(COC(=O)CCCCC(=O)OCCCCCCCCC)COC(=O)CCCN(C)C [Example 41]", "experimental-result": 80.3}
{"compound": "CCCCCCCCOC(=O)CCCCC(=O)OCC(COC(=O)CCCN(C)C)(COC(=O)CC(CCCCC)CCCCC)COC(=O)CC(CCCCC)CCCCC [Example 49]", "experimental-result": 96.0}
{"compound": "CCCCCC(CCCCC)CC(=O)OCC(COC(=O)CCCCC(=O)OCC(CCC)CCC)(COC(=O)CCCCC(=O)OCC(CCC)CCC)COC(=O)CCCN(C)C [Example 115]", "experimental-result": 95.7}
{"compound": "CCCCCCCCCCOC(=O)CCCCC(=O)OCC(COC(=O)CCCCC(=O)OCCCCCCCCCC)(COC(=O)CCCCC(=O)OCCCCCCCCCC)COC(=O)CCCN(C)C [Example 42]", "experimental-result": 86.2}
{"compound": "CCCCCCCOC(=O)CCCCC(=O)OCC(COC(=O)CCCCC(=O)OCCCCCCC)(COC(=O)CCCN(C)C)COC(=O)CC(CCCCCC)CCCCCC [Example 85]", "experimental-result": 95.4}
{"compound": "CCCCCCCCCOC(=O)CCCCC(=O)OCC(COC(=O)CCCCC(=O)OCCCCCCCCC)(COC(=O)CCCN(C)C)COC(=O)CC(CCCCC)CCCCC [Example 44]", "experimental-result": 96.3}
{"compound": "CCCCCCCCCCOC(=O)CCCCC(=O)OCC(COC(=O)CCCN(C)C)(COC(=O)CC(CCCCC)CCCCC)COC(=O)CC(CCCCC)CCCCC [Example 51]", "experimental-result": 98.2}
{"compound": "CCCCCCCCOC(=O)CCCC(=O)OCC(COC(=O)CCCC(=O)OCCCCCCCC)(COC(=O)CCCN(CC)C(C)C)COC(=O)CC(CCCCC)CCCCC [Example 101]", "experimental-result": 93.2}
{"compound": "CCCCCC(CCCCC)COC(=O)CCC(=O)OCC(COC(=O)CCCN(C)C)(COC(=O)CC(CCCCC)CCCCC)COC(=O)CC(CCCCC)CCCCC [Example 96]", "experimental-result": 98.8}
{"compound": "CCCCCCCOC(=O)CCCCC(=O)OCC(COC(=O)CCCCC(=O)OCCCCCCC)(COC(=O)CCCN(CC)CC)COC(=O)CC(CCCCC)CCCCC [Example 14]", "experimental-result": 94.7}

###

System: Huh-7 cells
experimental-protocol: Evaluation of viability using Huh-7 cells (Test Example 2)
Type: cell-based
condition-details: Huh-7 cells; Luc DNA-encapsulated lipid nanoparticles, final concentration 0.1 μg/mL; PBS group = 100%, dead cell group = 0%
metric-name: Viability 0.1 μg/ml (%)

{"compound": "CCCCCCCCC(C(=O)OC)C(=O)OCC(COC(=O)CCCN(C)C)(COC(=O)CC(CCCCC)CCCCC)COC(=O)C(CCCCCCCC)C(=O)OC (stereo not drawn)", "experimental-result": 95}
{"compound": "CCCCCCCCC(CCCCCC)C(=O)OCCCCCCN(CCCCO)CCCCCCOC(=O)C(CCCCCC)CCCCCCCC (stereo not drawn) [ALC-0315, reference compound]", "experimental-result": 89}
{"compound": "CCCCCC(CCCCC)CC(=O)OCC(COC(=O)CCCCC(=O)OCC(CCC)CCC)(COC(=O)CCCCC(=O)OCC(CCC)CCC)COC(=O)CCCN(C)C", "experimental-result": 110}

###

Property: Particle size (nm); scope: individual molecules
experimental-protocol: Particle size of Luc DNA-encapsulated lipid nanoparticles
Format: physicochemical
condition-details: cationic lipid:DPPC:cholesterol:GM-020=60:10.6:28:1.4 molar ratio

{"molecule": "CCCCCCCOC(=O)CCCCC(=O)OCC(COC(=O)CCCCC(=O)OCCCCCCC)(COC(=O)CCN(C)C)COC(=O)CC(CCCCC)CCCCC", "unit-label": "nm", "Particle size (nm)": 89.5}
{"molecule": "CCCCCC(CCCCC)CC(=O)OCC(COC(=O)CCCCCCCC(=O)OC)(COC(=O)CCCCCCCC(=O)OC)COC(=O)CCCN(C)C", "unit-label": "nm", "Particle size (nm)": 95.1}
{"molecule": "CCCCCOC(=O)CCCCCCC(=O)OCC(COC(=O)CCCCCCC(=O)OCCCCC)(COC(=O)CCCN(C)C)COC(=O)CC(CCCCC)CCCCC", "unit-label": "nm", "Particle size (nm)": 144.9}
{"molecule": "CCCCCCCCCOC(=O)CCCCC(=O)OCC(COC(=O)CCCCC(=O)OCCCCCCCCC)(COC(=O)CCCN(C)C)COC(=O)CC(CCCCC)CCCCC", "unit-label": "nm", "Particle size (nm)": 132.3}
{"molecule": "CCCCCCCOC(=O)CCCCC(=O)OCC(COC(=O)CCCN(C)C)(COC(=O)CC(CCCCC)CCCCC)COC(=O)CC(CCCCC)CCCCC", "unit-label": "nm", "Particle size (nm)": 98.4}
{"molecule": "CCCCCCCOC(=O)CCCCC(=O)OCC(COC(=O)CCCCC(=O)OCCCCCCC)(COC(=O)CCCN(C)CCCO)COC(=O)CC(CCCCC)CCCCC", "unit-label": "nm", "Particle size (nm)": 129.4}
{"molecule": "CCCCCCCCCOC(=O)CCC(=O)OCC(COC(=O)CCCN(CC)C(C)C)(COC(=O)CCC(=O)OCCCCCCCCC)COC(=O)CC(CCCCC)CCCCC", "unit-label": "nm", "Particle size (nm)": 141.8}
{"molecule": "CCCCCCOC(=O)CCCCCCCC(=O)OCC(COC(=O)CCCN(C)C)(COC(=O)CC(CCCCC)CCCCC)COC(=O)CC(CCCCC)CCCCC", "unit-label": "nm", "Particle size (nm)": 90.9}
{"molecule": "CCCCCCOC(=O)CCCCCC(=O)OCC(COC(=O)CCCCCC(=O)OCCCCCC)(COC(=O)CCCN(C)C)COC(=O)CC(CCCCC)CCCCC", "unit-label": "nm", "Particle size (nm)": 153.8}
{"molecule": "CCCCCCCCOC(=O)CCCC(=O)OCC(COC(=O)CCCC(=O)OCCCCCCCC)(COC(=O)CCCN(CC)C(C)C)COC(=O)CC(CCCCC)CCCCC", "unit-label": "nm", "Particle size (nm)": 137.2}
{"molecule": "CCCCCC(CCCCC)COC(=O)CCC(=O)OCC(COC(=O)CCCCN(C)C)(COC(=O)CCC(=O)OCC(CCCCC)CCCCC)COC(=O)CCC(=O)OCC(CCCCC)CCCCC", "unit-label": "nm", "Particle size (nm)": 131.3}
{"molecule": "CCCCCCCCCCC(C(=O)OC)C(=O)OCC(COC(=O)CCCN(CC)C(C)C)(COC(=O)CC(CCCCC)CCCCC)COC(=O)C(CCCCCCCCCC)C(=O)OC (stereo not drawn)", "unit-label": "nm", "Particle size (nm)": 80.1}

###

Tested on: Huh-7 cells
experimental-protocol: Evaluation of viability using Huh-7 cells (Test Example 2)
Type: cell-based
condition-details: Huh-7 cells; Luc DNA-encapsulated lipid nanoparticles, final concentration 0.3 μg/mL; PBS group = 100%, dead cell group = 0%
metric-name: Viability 0.3 μg/ml (%)

{"molecule": "CCCCCCCCC(CCCCCC)C(=O)OCCCCCCN(CCCCO)CCCCCCOC(=O)C(CCCCCC)CCCCCCCC (stereo not drawn) [ALC-0315, reference compound]", "experimental-result": 68}
{"molecule": "CCCCCCCCC(C(=O)OC)C(=O)OCC(COC(=O)CCCN(C)C)(COC(=O)CC(CCCCC)CCCCC)COC(=O)C(CCCCCCCC)C(=O)OC (stereo not drawn)", "experimental-result": 94}
{"molecule": "CCCCCCCCCCOC(=O)CCCCC(=O)OCC(COC(=O)CCCN(C)C)(COC(=O)CC(CCCCC)CCCCC)COC(=O)CC(CCCCC)CCCCC", "experimental-result": 78}
{"molecule": "CCCCCC(CCCCC)COC(=O)CCC(=O)OCC(COC(=O)CCCN(C)C)(COC(=O)CCC(=O)OCC(CCCCC)CCCCC)COC(=O)CCC(=O)OCC(CCCCC)CCCCC", "experimental-result": 98}
{"molecule": "CCCCCCCOC(=O)CCCCC(=O)OCC(COC(=O)CCCCN(C)C)(COC(=O)CC(CCCCC)CCCCC)COC(=O)CC(CCCCC)CCCCC", "experimental-result": 106}
{"molecule": "CCCCCCCCCOC(=O)CCCCC(=O)OCC(COC(=O)CCCCC(=O)OCCCCCCCCC)(COC(=O)CCCCC(=O)OCCCCCCCCC)COC(=O)CCCN(C)C", "experimental-result": 101}
{"molecule": "CCCCC/C=C\\C/C=C\\CCCCCCCCC(CCCCCCCC/C=C\\C/C=C\\CCCCC)OC(=O)CCCN(C)C [MC3, reference compound]", "experimental-result": 49}
{"molecule": "CCCCCCCCCCOC(=O)CCCCC(=O)OCC(COC(=O)CCCCC(=O)OCCCCCCCCCC)(COC(=O)CCCN(C)C)COC(=O)CC(CCCCC)CCCCC", "experimental-result": 103}
{"molecule": "CCCCCCCOC(=O)CCCCC(=O)OCC(COC(=O)CCCCC(=O)OCCCCCCC)(COC(=O)CCCN(C)C)COC(=O)CC(CCC)CCCCCCC (stereo not drawn)", "experimental-result": 110}
{"molecule": "CCCCCCCOC(=O)CCCCC(=O)OCC(COC(=O)CCCCC(=O)OCCCCCCC)(COC(=O)CCCN(C)C)COC(=O)CC(CCCCC)CCCCC", "experimental-result": 105}
{"molecule": "CCCCCC(CCCCC)CC(=O)OCC(COC(=O)CCCCC(=O)OCC(CCC)CCC)(COC(=O)CCCCC(=O)OCC(CCC)CCC)COC(=O)CCCN(C)C", "experimental-result": 100}
{"molecule": "CCCCCCCOC(=O)CCCCC(=O)OCC(COC(=O)CCCCC(=O)OCCCCCCC)(COC(=O)CCCN(C)CCO)COC(=O)CC(CCCCC)CCCCC", "experimental-result": 101}

All values here come from patent US20250197343A1.
